The reported numbers originate from paper PMC11090907.

# target.system: T1, RLuc8-L5-ALFA-tag
# T1 chain: SRLEEELRRRLTE
# method.summary: BRET donor saturation assay
# study.conditions: chain shown with the change; HEK293T cells; 37°C; parent: 28.4 ± 0.37
The following binders are listed with their measured other: BRETmax values.
No unit in the answer, please; the number alone is enough.

GFP2-L5-sdAbALFA WT S57A; E58S; R59G; R65D (protein) EVQLQESGGGLVQPGGSLRLSCTASGVTISALNAMAMGWYRQAPGERRVMVAAVASGGNAMYDESVQGRFTVTRDFTNKMVSLQMDNLKPEDTAVYYCHVLEDRVDSFHDYWGQGTQVTVSS
14
GFP2-L5-sdAbALFA WT S57A; E58S; R59G (protein) EVQLQESGGGLVQPGGSLRLSCTASGVTISALNAMAMGWYRQAPGERRVMVAAVASGGNAMYRESVQGRFTVTRDFTNKMVSLQMDNLKPEDTAVYYCHVLEDRVDSFHDYWGQGTQVTVSS
26.4
GFP2-L5-sdAbALFA WT S57A; E58S (protein) EVQLQESGGGLVQPGGSLRLSCTASGVTISALNAMAMGWYRQAPGERRVMVAAVASRGNAMYRESVQGRFTVTRDFTNKMVSLQMDNLKPEDTAVYYCHVLEDRVDSFHDYWGQGTQVTVSS
26.7
GFP2-L5-sdAbALFA WT E58S (protein) EVQLQESGGGLVQPGGSLRLSCTASGVTISALNAMAMGWYRQAPGERRVMVAAVSSRGNAMYRESVQGRFTVTRDFTNKMVSLQMDNLKPEDTAVYYCHVLEDRVDSFHDYWGQGTQVTVSS
28.1

Consider now this further binder.
Q: Item GFP2-L5-sdAbALFA WT S57A; E58S; R59G; R65D; D112V (protein) EVQLQESGGGLVQPGGSLRLSCTASGVTISALNAMAMGWYRQAPGERRVMVAAVASGGNAMYDESVQGRFTVTRDFTNKMVSLQMDNLKPEDTAVYYCHVLEDRVDSFHVYWGQGTQVTVSS has what recorded other: BRETmax?
A: 3.3
